Exercise: state measured viability, T/C for each of the compounds provided.
Test system: 186277-243-T-J2-PDC multi-cell spheroid viability
Assay: Anticancer human tumor 186277-243-T-J2-PDC patient-derived colon adenocarcinoma cell line growth inhibition [PI3K]
Details: second compound 0.316 µM; first compound 0.949 µM; active compounds read low
Report the value in % with no unit label.

Summary for this compound, Cn1cnc2c(F)c(Nc3ccc(Br)cc3Cl)c(C(=O)NOCCO)cc21 + Cc1nc(NC(=O)N2CCCC2C(N)=O)sc1-c1ccnc(C(C)(C)C(F)(F)F)c1 : viability, T/C is 8.47

Summary for this compound, Cn1cnc2c(F)c(Nc3ccc(Br)cc3Cl)c(C(=O)NOCCO)cc21 + CC(Nc1ccc2c(c1)OCCn1cc(N3C(=O)OCC3C(F)F)nc1-2)C(N)=O : viability, T/C is 4.43

Summary for this compound, Cn1cnc2c(F)c(Nc3ccc(Br)cc3Cl)c(C(=O)NOCCO)cc21 + COc1c(OCCCN2CCOCC2)ccc2c3n(c(=NC(=O)c4cnc(N)nc4)nc12)CCN3 : viability, T/C is 0.45

Summary for this compound, Cn1cnc2c(F)c(Nc3ccc(Br)cc3Cl)c(C(=O)NOCCO)cc21 + CC(Nc1ncnc2nc[nH]c12)c1cc2cccc(Cl)c2c(=O)n1-c1ccccc1 : viability, T/C is 15.3

* * *

System: 186277-243-T-J2-PDC multi-cell spheroid viability
Test: Anticancer human tumor 186277-243-T-J2-PDC cell line growth inhibition [PI3K];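 note: spheroids exposed to compounds for seven days before viability reading; 100% = DMSO vehicle control viability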
Conditions: second compound 0.316 µM; first compound 0.0316 µM; active compounds read low
reported-metric: viability, T/C (%)
Report the value in % with no unit label.

Summary for this compound, CC1(C)CCC(CN2CCN(c3ccc(C(=O)NS(=O)(=O)c4ccc(NCC5CCOCC5)c([N+](=O)[O-])c4)c(Oc4cnc5[nH]ccc5c4)c3)CC2)=C(c2ccc(Cl)cc2)C1 + COc1c(OCCCN2CCOCC2)ccc2c3n(c(=NC(=O)c4cnc(N)nc4)nc12)CCN3 : viability, T/C is 5.48

Summary for this compound, CC1(C)CCC(CN2CCN(c3ccc(C(=O)NS(=O)(=O)c4ccc(NCC5CCOCC5)c([N+](=O)[O-])c4)c(Oc4cnc5[nH]ccc5c4)c3)CC2)=C(c2ccc(Cl)cc2)C1 + CC(Nc1ncnc2nc[nH]c12)c1cc2cccc(Cl)c2c(=O)n1-c1ccccc1 : viability, T/C is 97

Summary for this compound, C#Cc1c(F)ccc2cc(O)cc(-c3ncc4c(N5CC6CCC(C5)N6)nc(OCC56CCCN5CC(F)C6)nc4c3F)c12 (stereo not drawn) + CC(Nc1ccc2c(c1)OCCn1cc(N3C(=O)OCC3C(F)F)nc1-2)C(N)=O : viability, T/C is 10.9

Summary for this compound, CC(=O)c1c(C)c2cnc(Nc3ccc(N4CCNCC4)cn3)nc2n(C2CCCC2)c1=O + Cc1nc(NC(=O)N2CCCC2C(N)=O)sc1-c1ccnc(C(C)(C)C(F)(F)F)c1 : viability, T/C is 124

Summary for this compound, C=CC(=O)N1CCN(c2nc(=O)n(-c3c(C)ccnc3C(C)C)c3nc(-c4c(O)cccc4F)c(F)cc23)C(C)C1 (stereo not drawn) + Cc1nc(NC(=O)N2CCCC2C(N)=O)sc1-c1ccnc(C(C)(C)C(F)(F)F)c1 : viability, T/C is 108

Summary for this compound, CCN1CCN(Cc2ccc(Nc3ncc(F)c(-c4cc(F)c5nc(C)n(C(C)C)c5c4)n3)nc2)CC1 + CC(Nc1ccc2c(c1)OCCn1cc(N3C(=O)OCC3C(F)F)nc1-2)C(N)=O : viability, T/C is 52.5

Summary for this compound, CCCS(=O)(=O)Nc1ccc(F)c(C(=O)c2c[nH]c3ncc(-c4ccc(Cl)cc4)cc23)c1F + CC(Nc1ncnc2nc[nH]c12)c1cc2cccc(Cl)c2c(=O)n1-c1ccccc1 : viability, T/C is 97.3

Summary for this compound, Cn1nccc1Nc1nccc(-c2ccn(C(CO)c3ccc(Cl)c(F)c3)c(=O)c2)n1 (stereo not drawn) + Cc1nc(NC(=O)N2CCCC2C(N)=O)sc1-c1ccnc(C(C)(C)C(F)(F)F)c1 : viability, T/C is 105

Summary for this compound, C=CC(=O)N1CCN(c2nc(=O)n(-c3c(C)ccnc3C(C)C)c3nc(-c4c(O)cccc4F)c(F)cc23)C(C)C1 (stereo not drawn) + CC(Nc1ncnc2nc[nH]c12)c1cc2cccc(Cl)c2c(=O)n1-c1ccccc1 : viability, T/C is 95.6

Summary for this compound, CC1(C)CCC(Nc2ncc(C(F)(F)F)c(-c3c[nH]c4c(P(C)(C)=O)c(C#N)ccc34)n2)CN1 (stereo not drawn) + CC(Nc1ccc2c(c1)OCCn1cc(N3C(=O)OCC3C(F)F)nc1-2)C(N)=O : viability, T/C is 54.2

Summary for this compound, CC(C)NCC(C(=O)N1CCN(c2ncnc3c2C(C)CC3O)CC1)c1ccc(Cl)cc1 (stereo not drawn) + CC(Nc1ccc2c(c1)OCCn1cc(N3C(=O)OCC3C(F)F)nc1-2)C(N)=O : viability, T/C is 75.9

Summary for this compound, Cn1ncc(Cl)c1-c1cc(C(=O)NC(CN)Cc2cccc(F)c2)sc1Cl (stereo not drawn) + CC(Nc1ncnc2nc[nH]c12)c1cc2cccc(Cl)c2c(=O)n1-c1ccccc1 : viability, T/C is 99.9

Summary for this compound, CC1(C)CCC(Nc2ncc(C(F)(F)F)c(-c3c[nH]c4c(P(C)(C)=O)c(C#N)ccc34)n2)CN1 (stereo not drawn) + Cc1nc(NC(=O)N2CCCC2C(N)=O)sc1-c1ccnc(C(C)(C)C(F)(F)F)c1 : viability, T/C is 77

Summary for this compound, CC(Cn1ccc(-c2ccc(C#N)c(Cl)c2)n1)NC(=O)c1cc(C(C)O)[nH]n1 (stereo not drawn) + Cc1nc(NC(=O)N2CCCC2C(N)=O)sc1-c1ccnc(C(C)(C)C(F)(F)F)c1 : viability, T/C is 99.7

Summary for this compound, CC(C)NCC(C(=O)N1CCN(c2ncnc3c2C(C)CC3O)CC1)c1ccc(Cl)cc1 (stereo not drawn) + COc1c(OCCCN2CCOCC2)ccc2c3n(c(=NC(=O)c4cnc(N)nc4)nc12)CCN3 : viability, T/C is 5.04

Summary for this compound, CNC(=O)c1ccc(N2C(=S)N(c3ccc(C#N)c(C(F)(F)F)c3)C(=O)C2(C)C)cc1F + CC(Nc1ncnc2nc[nH]c12)c1cc2cccc(Cl)c2c(=O)n1-c1ccccc1 : viability, T/C is 104

Summary for this compound, CCCS(=O)(=O)Nc1ccc(F)c(C(=O)c2c[nH]c3ncc(-c4ccc(Cl)cc4)cc23)c1F + CC(Nc1ccc2c(c1)OCCn1cc(N3C(=O)OCC3C(F)F)nc1-2)C(N)=O : viability, T/C is 81

Summary for this compound, CCCS(=O)(=O)Nc1ccc(F)c(C(=O)c2c[nH]c3ncc(-c4ccc(Cl)cc4)cc23)c1F + Cc1nc(NC(=O)N2CCCC2C(N)=O)sc1-c1ccnc(C(C)(C)C(F)(F)F)c1 : viability, T/C is 113

Summary for this compound, CC(C)n1nc(-c2ccc3oc(N)nc3c2)c2c(N)ncnc21 + Cc1nc(NC(=O)N2CCCC2C(N)=O)sc1-c1ccnc(C(C)(C)C(F)(F)F)c1 : viability, T/C is 63.7

Summary for this compound, C[C@@H](NC(=O)c1ncnc(N)c1Cl)c1ncc(C(=O)Nc2cc(C(F)(F)F)c(Cl)cn2)s1 + CC(Nc1ccc2c(c1)OCCn1cc(N3C(=O)OCC3C(F)F)nc1-2)C(N)=O : viability, T/C is 85.9

Summary for this compound, Cn1ncc(Cl)c1-c1cc(C(=O)NC(CN)Cc2cccc(F)c2)sc1Cl (stereo not drawn) + CC(Nc1ccc2c(c1)OCCn1cc(N3C(=O)OCC3C(F)F)nc1-2)C(N)=O : viability, T/C is 64.6

Summary for this compound, CNC(=O)c1ccc(N2C(=S)N(c3ccc(C#N)c(C(F)(F)F)c3)C(=O)C2(C)C)cc1F + Cc1nc(NC(=O)N2CCCC2C(N)=O)sc1-c1ccnc(C(C)(C)C(F)(F)F)c1 : viability, T/C is 97.1

Summary for this compound, CC1(C)CCC(Nc2ncc(C(F)(F)F)c(-c3c[nH]c4c(P(C)(C)=O)c(C#N)ccc34)n2)CN1 (stereo not drawn) + COc1c(OCCCN2CCOCC2)ccc2c3n(c(=NC(=O)c4cnc(N)nc4)nc12)CCN3 : viability, T/C is 2.73

* * *

Exercise: state measured viability, T/C for each of the compounds provided.
Tested on: 186277-243-T-J2-PDC multi-cell spheroid viability
Test: Anticancer human tumor 186277-243-T-J2-PDC cell line growth inhibition [PI3K];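 note: spheroids exposed to compounds for seven days before viability reading; 100% = DMSO vehicle control viability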
Details: second compound 1 µM; first compound 0.316 µM; active compounds read low
Report the value in % with no unit label.

Summary for this compound, CC(Cn1ccc(-c2ccc(C#N)c(Cl)c2)n1)NC(=O)c1cc(C(C)O)[nH]n1 (centres undefined) + COc1c(OCCCN2CCOCC2)ccc2c3n(c(=NC(=O)c4cnc(N)nc4)nc12)CCN3 : viability, T/C is 2.93

Summary for this compound, Cn1nccc1Nc1nccc(-c2ccn(C(CO)c3ccc(Cl)c(F)c3)c(=O)c2)n1 (centres undefined) + Cc1nc(NC(=O)N2CCCC2C(N)=O)sc1-c1ccnc(C(C)(C)C(F)(F)F)c1 : viability, T/C is 30.9

Summary for this compound, CC1(C)CCC(CN2CCN(c3ccc(C(=O)NS(=O)(=O)c4ccc(NCC5CCOCC5)c([N+](=O)[O-])c4)c(Oc4cnc5[nH]ccc5c4)c3)CC2)=C(c2ccc(Cl)cc2)C1 + CC(Nc1ncnc2nc[nH]c12)c1cc2cccc(Cl)c2c(=O)n1-c1ccccc1 : viability, T/C is 102

Summary for this compound, CC1(C)CCC(Nc2ncc(C(F)(F)F)c(-c3c[nH]c4c(P(C)(C)=O)c(C#N)ccc34)n2)CN1 (centres undefined) + COc1c(OCCCN2CCOCC2)ccc2c3n(c(=NC(=O)c4cnc(N)nc4)nc12)CCN3 : viability, T/C is 1.5

Summary for this compound, CCCS(=O)(=O)Nc1ccc(F)c(C(=O)c2c[nH]c3ncc(-c4ccc(Cl)cc4)cc23)c1F + Cc1nc(NC(=O)N2CCCC2C(N)=O)sc1-c1ccnc(C(C)(C)C(F)(F)F)c1 : viability, T/C is 98.5

Summary for this compound, CCCS(=O)(=O)Nc1ccc(F)c(C(=O)c2c[nH]c3ncc(-c4ccc(Cl)cc4)cc23)c1F + COc1c(OCCCN2CCOCC2)ccc2c3n(c(=NC(=O)c4cnc(N)nc4)nc12)CCN3 : viability, T/C is 3.96

Summary for this compound, CNC(=O)c1ccc(N2C(=S)N(c3ccc(C#N)c(C(F)(F)F)c3)C(=O)C2(C)C)cc1F + CC(Nc1ncnc2nc[nH]c12)c1cc2cccc(Cl)c2c(=O)n1-c1ccccc1 : viability, T/C is 117

Summary for this compound, C=CC(=O)N1CCN(c2nc(=O)n(-c3c(C)ccnc3C(C)C)c3nc(-c4c(O)cccc4F)c(F)cc23)C(C)C1 (centres undefined) + COc1c(OCCCN2CCOCC2)ccc2c3n(c(=NC(=O)c4cnc(N)nc4)nc12)CCN3 : viability, T/C is 1.66

Summary for this compound, C#Cc1c(F)ccc2cc(O)cc(-c3ncc4c(N5CC6CCC(C5)N6)nc(OCC56CCCN5CC(F)C6)nc4c3F)c12 (centres undefined) + CC(Nc1ncnc2nc[nH]c12)c1cc2cccc(Cl)c2c(=O)n1-c1ccccc1 : viability, T/C is 18

Summary for this compound, CNC(=O)c1ccc(N2C(=S)N(c3ccc(C#N)c(C(F)(F)F)c3)C(=O)C2(C)C)cc1F + CC(Nc1ccc2c(c1)OCCn1cc(N3C(=O)OCC3C(F)F)nc1-2)C(N)=O : viability, T/C is 45.1

Summary for this compound, CCCS(=O)(=O)Nc1ccc(F)c(C(=O)c2c[nH]c3ncc(-c4ccc(Cl)cc4)cc23)c1F + CC(Nc1ccc2c(c1)OCCn1cc(N3C(=O)OCC3C(F)F)nc1-2)C(N)=O : viability, T/C is 70.4

Summary for this compound, CC1(C)CCC(CN2CCN(c3ccc(C(=O)NS(=O)(=O)c4ccc(NCC5CCOCC5)c([N+](=O)[O-])c4)c(Oc4cnc5[nH]ccc5c4)c3)CC2)=C(c2ccc(Cl)cc2)C1 + CC(Nc1ccc2c(c1)OCCn1cc(N3C(=O)OCC3C(F)F)nc1-2)C(N)=O : viability, T/C is 46.3

Summary for this compound, CCCS(=O)(=O)Nc1ccc(F)c(C(=O)c2c[nH]c3ncc(-c4ccc(Cl)cc4)cc23)c1F + CC(Nc1ncnc2nc[nH]c12)c1cc2cccc(Cl)c2c(=O)n1-c1ccccc1 : viability, T/C is 95.5

Summary for this compound, CC1(C)CCC(CN2CCN(c3ccc(C(=O)NS(=O)(=O)c4ccc(NCC5CCOCC5)c([N+](=O)[O-])c4)c(Oc4cnc5[nH]ccc5c4)c3)CC2)=C(c2ccc(Cl)cc2)C1 + COc1c(OCCCN2CCOCC2)ccc2c3n(c(=NC(=O)c4cnc(N)nc4)nc12)CCN3 : viability, T/C is 3.06

Summary for this compound, C=CC(=O)N1CCN(c2nc(=O)n(-c3c(C)ccnc3C(C)C)c3nc(-c4c(O)cccc4F)c(F)cc23)C(C)C1 (centres undefined) + Cc1nc(NC(=O)N2CCCC2C(N)=O)sc1-c1ccnc(C(C)(C)C(F)(F)F)c1 : viability, T/C is 87.6

Summary for this compound, C#Cc1c(F)ccc2cc(O)cc(-c3ncc4c(N5CC6CCC(C5)N6)nc(OCC56CCCN5CC(F)C6)nc4c3F)c12 (centres undefined) + CC(Nc1ccc2c(c1)OCCn1cc(N3C(=O)OCC3C(F)F)nc1-2)C(N)=O : viability, T/C is 6.04

Summary for this compound, C[C@@H](NC(=O)c1ncnc(N)c1Cl)c1ncc(C(=O)Nc2cc(C(F)(F)F)c(Cl)cn2)s1 + COc1c(OCCCN2CCOCC2)ccc2c3n(c(=NC(=O)c4cnc(N)nc4)nc12)CCN3 : viability, T/C is 2.41

Summary for this compound, C[C@@H](NC(=O)c1ncnc(N)c1Cl)c1ncc(C(=O)Nc2cc(C(F)(F)F)c(Cl)cn2)s1 + CC(Nc1ccc2c(c1)OCCn1cc(N3C(=O)OCC3C(F)F)nc1-2)C(N)=O : viability, T/C is 51.4

Summary for this compound, CC1(C)CCC(CN2CCN(c3ccc(C(=O)NS(=O)(=O)c4ccc(NCC5CCOCC5)c([N+](=O)[O-])c4)c(Oc4cnc5[nH]ccc5c4)c3)CC2)=C(c2ccc(Cl)cc2)C1 + Cc1nc(NC(=O)N2CCCC2C(N)=O)sc1-c1ccnc(C(C)(C)C(F)(F)F)c1 : viability, T/C is 96.9
